The measured values listed here are drawn from patent US9440952B2.

# SUBJECT_OF_TEST: LRRK2(G2019S mutation, GST-LRRK2(amino acids 970-2527)) (Homo sapiens, UniProt Q5S007, G2019S)
# Construct: GST-LRRK2(amino acids 970-2527); GST (N); purchased Life Technologies Corporation
# Sequence (Q5S007 970-2527 G2019S): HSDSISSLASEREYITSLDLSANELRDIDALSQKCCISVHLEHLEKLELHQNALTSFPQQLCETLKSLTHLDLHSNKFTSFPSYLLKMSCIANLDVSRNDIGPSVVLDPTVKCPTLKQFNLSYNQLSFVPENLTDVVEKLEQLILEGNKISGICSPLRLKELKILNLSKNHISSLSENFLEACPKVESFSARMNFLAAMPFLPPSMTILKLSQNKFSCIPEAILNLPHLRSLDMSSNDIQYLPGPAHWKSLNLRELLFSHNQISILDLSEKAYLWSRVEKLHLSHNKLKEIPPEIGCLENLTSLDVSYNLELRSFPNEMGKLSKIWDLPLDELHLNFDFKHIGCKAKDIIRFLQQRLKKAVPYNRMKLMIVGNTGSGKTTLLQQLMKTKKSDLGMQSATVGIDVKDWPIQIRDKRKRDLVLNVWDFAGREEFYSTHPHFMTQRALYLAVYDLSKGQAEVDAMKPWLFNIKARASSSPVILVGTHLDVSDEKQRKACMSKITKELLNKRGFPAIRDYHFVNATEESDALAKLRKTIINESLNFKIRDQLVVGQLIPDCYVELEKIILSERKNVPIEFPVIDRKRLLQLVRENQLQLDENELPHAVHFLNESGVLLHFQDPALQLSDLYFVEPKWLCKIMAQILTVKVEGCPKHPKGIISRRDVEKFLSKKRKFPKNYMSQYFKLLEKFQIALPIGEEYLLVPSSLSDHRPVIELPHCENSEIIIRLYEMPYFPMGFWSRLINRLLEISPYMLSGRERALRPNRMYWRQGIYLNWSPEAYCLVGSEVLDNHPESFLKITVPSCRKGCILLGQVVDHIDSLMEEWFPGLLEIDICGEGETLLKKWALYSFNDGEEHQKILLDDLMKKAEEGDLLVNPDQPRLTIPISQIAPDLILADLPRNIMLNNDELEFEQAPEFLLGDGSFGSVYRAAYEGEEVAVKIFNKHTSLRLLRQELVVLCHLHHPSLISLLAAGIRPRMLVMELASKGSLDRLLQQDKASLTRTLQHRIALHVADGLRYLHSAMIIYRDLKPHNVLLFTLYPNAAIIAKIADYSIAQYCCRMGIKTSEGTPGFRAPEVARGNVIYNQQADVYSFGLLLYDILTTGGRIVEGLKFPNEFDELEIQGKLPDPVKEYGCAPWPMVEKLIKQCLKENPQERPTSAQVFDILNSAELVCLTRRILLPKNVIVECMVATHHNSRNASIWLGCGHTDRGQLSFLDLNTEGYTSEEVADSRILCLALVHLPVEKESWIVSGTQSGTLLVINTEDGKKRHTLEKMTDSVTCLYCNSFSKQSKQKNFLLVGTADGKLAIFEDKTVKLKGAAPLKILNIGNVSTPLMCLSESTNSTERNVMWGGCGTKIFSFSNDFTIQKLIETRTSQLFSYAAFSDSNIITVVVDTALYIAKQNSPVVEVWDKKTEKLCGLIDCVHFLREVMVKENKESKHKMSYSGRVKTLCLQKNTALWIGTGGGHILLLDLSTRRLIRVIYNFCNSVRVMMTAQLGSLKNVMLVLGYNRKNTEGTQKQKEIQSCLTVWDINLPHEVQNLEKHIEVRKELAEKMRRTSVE
# PROTOCOL_NOTES: LRRK2 Km ATP LanthaScreen Assay
# Type: biochemical
# CONDITION_DESCRIPTION: Km ATP LanthaScreen; mean IC50 of several tests; read-out: LRRK2 IC50
METRIC: pIC50
Friendly reminder that pIC50 comes from taking -log10 of the concentration in mol/L.

Would you please look over these solved cases?
{"columns": ["COMPOUND", "pIC50"],
 "data": [
  ["Cn1cc(-c2ccc3[nH]nc(-c4ccnc(N5CCCCC5)c4)c3c2)cn1 [Example 266]", 8.62],
  ["CC(C)Oc1ccc2[nH]nc(-c3ccnc(NS(=O)(=O)Cc4ccccn4)c3)c2c1 [Example 261]", 6.91],
  ["CC(C)Oc1ccc2[nH]nc(-c3ccnc(NS(=O)(=O)c4ccc5c(c4)N(C)C(=O)CO5)c3)c2c1 [Example 262]", 7.36],
  ["Brc1ccc2[nH]nc(-c3ccnc(N4CCOCC4)c3)c2c1 [Example 77]", 7.96],
  ["FC(F)n1cc(-c2ccc3[nH]nc(-c4ccnc(N5CCOCC5)c4)c3c2)cn1 [Example 396]", 8.55],
  ["Clc1cnc(-c2ccc3[nH]nc(-c4ccnc(N5CCOCC5)c4)c3c2)nc1 [Example 334]", 7.28],
  ["c1cc(-c2n[nH]c3ccc(-c4cnco4)cc23)cc(N2CCOCC2)n1 [Example 322]", 9.18],
  ["c1cc(-c2n[nH]c3ccc(C4CC4)cc23)cc(N2CCOCC2)n1 [Example 387]", 8.22]
]}

The reported pIC50 of the compound COc1ccc(-c2ccc3[nH]nc(-c4ccnc(N5CCOCC5)c4)c3c2)c(OC)n1 [Example 328] was 6.72

Reported pIC50 for CC(C)Oc1ccc2[nH]nc(-c3ccnc(NS(C)(=O)=O)c3)c2c1 [Example 395] was 7.70

Record Oc1cc(-c2ccc3[nH]nc(-c4ccnc(N5CCNCC5)c4)c3c2)ccn1 [Example 120] . Reported pIC50: 8.47

The reported value for CC(C)Oc1ccc2[nH]nc(-c3ccnc(N4CCOC4=O)c3)c2c1 [Example 303] in terms of pIC50 is 7.80

Memo: Cn1cc(-c2ccc3[nH]nc(-c4ccnc(N5CC(F)(F)C5)c4)c3c2)cn1 [Example 274] , reported pIC50: 8.38

Form: compound = Cc1ncc(-c2ccc3[nH]nc(-c4ccnc(N5CCOCC5)c4)c3c2)n1C [Example 317] ; pIC50 = 8.85

Documented pIC50 of Cn1cc(-c2ccc3[nH]nc(-c4ccnc(N5CCOC6(CC6)C5)c4)c3c2)cn1 [Example 379] : 8.38

Reported pIC50 of c1cc(-c2n[nH]c3cc4c(cc23)OCCO4)cc(N2CCOCC2)n1 [Example 394] : 7.92

The compound identified as Cn1cc(-c2ccc3[nH]nc(-c4ccnc(N5C[C@H](F)[C@@H](F)C5)c4)c3c2)cn1 [Example 271] registered its pIC50 at 8.66

// pIC50 lookup, compound = CC(C)Oc1ccc2[nH]nc(-c3ccnc(NS(=O)(=O)c4ccc5c(c4)OCCO5)c3)c2c1 [Example 260] , result: 7.28
